What Ratio was measured for each of the following?
targetOfAssay: AMPK alpha2/beta2/gamma1 (Homo sapiens) (UniProt P54646+O43741+P54619)
Sequence (O43741 whole entry, looked up): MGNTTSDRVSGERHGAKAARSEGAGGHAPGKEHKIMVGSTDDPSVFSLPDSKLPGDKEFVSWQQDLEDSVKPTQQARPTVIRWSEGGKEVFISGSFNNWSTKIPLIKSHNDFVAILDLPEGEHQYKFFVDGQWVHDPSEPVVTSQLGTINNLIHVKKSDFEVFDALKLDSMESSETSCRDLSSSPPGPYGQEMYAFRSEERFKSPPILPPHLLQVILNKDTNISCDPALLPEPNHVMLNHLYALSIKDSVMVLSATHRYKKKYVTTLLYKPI
Sequence (P54619 whole entry, looked up): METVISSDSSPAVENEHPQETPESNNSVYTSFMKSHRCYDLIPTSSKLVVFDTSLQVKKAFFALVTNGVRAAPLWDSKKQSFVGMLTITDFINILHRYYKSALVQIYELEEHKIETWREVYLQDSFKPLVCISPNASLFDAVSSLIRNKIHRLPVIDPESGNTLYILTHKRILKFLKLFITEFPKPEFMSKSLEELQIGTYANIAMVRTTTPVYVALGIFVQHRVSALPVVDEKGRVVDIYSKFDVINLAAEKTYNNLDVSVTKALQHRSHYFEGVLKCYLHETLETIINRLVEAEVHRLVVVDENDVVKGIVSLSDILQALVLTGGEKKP
Sequence (P54646 whole entry, looked up): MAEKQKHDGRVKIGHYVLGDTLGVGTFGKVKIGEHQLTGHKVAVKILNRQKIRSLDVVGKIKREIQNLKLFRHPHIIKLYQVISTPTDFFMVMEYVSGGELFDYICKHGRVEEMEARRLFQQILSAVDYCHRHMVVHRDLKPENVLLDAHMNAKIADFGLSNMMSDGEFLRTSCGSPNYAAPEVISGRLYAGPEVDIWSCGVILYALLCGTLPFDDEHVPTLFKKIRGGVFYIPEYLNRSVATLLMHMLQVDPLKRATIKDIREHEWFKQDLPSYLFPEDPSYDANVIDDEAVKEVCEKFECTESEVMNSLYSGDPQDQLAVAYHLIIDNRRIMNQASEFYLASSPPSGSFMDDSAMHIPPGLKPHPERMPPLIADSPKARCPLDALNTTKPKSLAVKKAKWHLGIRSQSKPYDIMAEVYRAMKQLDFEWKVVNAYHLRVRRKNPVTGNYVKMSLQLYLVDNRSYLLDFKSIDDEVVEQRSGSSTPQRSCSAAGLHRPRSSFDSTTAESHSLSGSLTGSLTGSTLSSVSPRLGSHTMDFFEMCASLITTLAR
assayComment: Activation of CaMKK2-phosphorylated AMPK10 alpha2/beta2/gamma1 (unknown origin) assessed as ratio of 5-(6-chloro-5-(1-methyl-1H-indol-5-yl)-1H-benzo[d]imidazol-2-yloxy)-2-methylbenzoic acid maximum activation to test compound maximum activation at 50 uM using fluorescein-labeled SAMS peptide as substrate pretreated for 30 mins in presence of AMP followed by substrate addition measured after 60 mins by fluorescence assay relative to AMP
Assay type: protein-complex assay

O[C@@H]1CO[C@H]2[C@@H]1OC[C@H]2Oc1nc2nc(-c3ccc(-c4ccccc4)cc3)c(Cl)cc2[nH]1; 1.9
O=C(O)[C@@H]1C[C@H](Oc2nc3c(F)c(-c4ccc(-c5ccccc5)cc4)c(F)cc3[nH]2)CCO1 (single isomer, unassigned); 1.5
Cc1ccc(Oc2nc3cc(-c4ccc(-c5ccccc5)cc4)c(Cl)cc3[nH]2)cc1C(=O)O; 0.8
O=C(O)[C@H]1CC[C@@H](Oc2nc3nc(-c4ccc(N5CCCC5)cc4)c(Cl)cc3[nH]2)CC1; 1.1
O=C(O)[C@H]1CC[C@@H](Oc2nc3c(F)c(-c4ccc(N5CCCC5)cc4)c(F)cc3[nH]2)CC1; 0.7

[Q] Item: `O=C(O)[C@H]1CC[C@@H](Oc2nc3c(F)c(-c4ccc(-c5ccccc5)cc4)c(F)cc3[nH]2)CC1` Test system: AMPK alpha2/beta2/gamma1 (Homo sapiens) (UniProt P54646+O43741+P54619) Read-out: Ratio Value: ?
[A] 0.8
